molecular target: Ba/F3 cell EGFR Exon20 ins SVD (Homo sapiens, UniProt P00533, INS770SVD); construct: expressed in transfected cells; host or cells: Ba/F3; assay: Ba/F3 cell proliferation suppression, EGFR Exon20 ins SVD; assay type: cell-based; details: 72 hours after treatment, CellTiter-Glo
Sequence (P00533 with tags, fused parts or gaps INS770SVD): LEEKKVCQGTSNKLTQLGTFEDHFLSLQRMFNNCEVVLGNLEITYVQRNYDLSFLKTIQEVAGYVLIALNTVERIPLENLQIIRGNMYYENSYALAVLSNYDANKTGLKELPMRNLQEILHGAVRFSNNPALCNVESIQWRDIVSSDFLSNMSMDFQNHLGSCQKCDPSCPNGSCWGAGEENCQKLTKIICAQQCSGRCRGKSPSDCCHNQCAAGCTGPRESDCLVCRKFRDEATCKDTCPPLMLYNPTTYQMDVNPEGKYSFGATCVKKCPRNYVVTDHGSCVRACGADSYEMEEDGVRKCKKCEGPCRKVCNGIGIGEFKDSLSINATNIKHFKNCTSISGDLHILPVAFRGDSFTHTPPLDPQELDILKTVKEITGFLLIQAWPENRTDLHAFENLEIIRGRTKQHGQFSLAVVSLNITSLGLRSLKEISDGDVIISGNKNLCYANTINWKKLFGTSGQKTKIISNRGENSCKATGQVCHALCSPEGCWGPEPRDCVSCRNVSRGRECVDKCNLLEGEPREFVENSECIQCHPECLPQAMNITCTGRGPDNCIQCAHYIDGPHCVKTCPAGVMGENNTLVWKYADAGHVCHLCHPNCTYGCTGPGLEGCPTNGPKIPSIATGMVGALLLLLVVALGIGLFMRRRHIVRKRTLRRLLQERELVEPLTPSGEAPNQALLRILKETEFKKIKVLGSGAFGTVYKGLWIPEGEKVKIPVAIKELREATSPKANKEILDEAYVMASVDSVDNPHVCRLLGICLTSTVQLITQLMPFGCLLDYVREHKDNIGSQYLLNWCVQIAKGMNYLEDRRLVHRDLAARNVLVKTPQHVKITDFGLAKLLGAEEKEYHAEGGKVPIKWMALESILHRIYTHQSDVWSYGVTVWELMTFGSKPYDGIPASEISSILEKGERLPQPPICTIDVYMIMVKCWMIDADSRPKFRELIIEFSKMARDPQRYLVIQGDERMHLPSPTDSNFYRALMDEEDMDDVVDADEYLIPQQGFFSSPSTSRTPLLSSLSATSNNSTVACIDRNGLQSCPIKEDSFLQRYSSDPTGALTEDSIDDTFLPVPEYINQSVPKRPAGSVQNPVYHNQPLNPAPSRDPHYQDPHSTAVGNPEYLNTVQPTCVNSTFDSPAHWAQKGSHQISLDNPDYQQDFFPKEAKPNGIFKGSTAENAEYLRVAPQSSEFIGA
endpoint.name: GI50

Here's what some known entries look like.
C=CC(=O)Nc1cc(Nc2cc(N3OCC[C@@H]3c3ccccc3)ncn2)c(OC)cc1N1CC[C@@H](N(C)C)C1 [Example 13]; < 0.05 µM
C=CC(=O)Nc1cc(Nc2cc(N3OCC[C@H]3c3ccccc3)ncn2)c(OC)cc1N1CCN(C)CC1 [Example 3]; 0.05 to 0.5 µM

Task: Which GI50 is reported for this compound? C=CC(=O)Nc1cc(Nc2cc(N3OCC[C@@H]3c3cc(F)cc(F)c3)ncn2)c(OC)cc1N1CC[C@@H](N(C)C)C1 [Example 242]
Result: < 0.05 µM

Values compiled from patent US12157730B2.
